# System: Vero E6 infected with SARS-CoV-2
# assay: SARS-CoV-2 infection rate relative to infected DMSO; higher = more infection, active = 60 or less
# condition.info: 24 h
Just give me one of these, please: active, inactive

q: What call does the record list for C[C@@H](N)Cc1c[nH]c2ccc(O)cc12 [alpha-methylserotonin] (10 µM) ?
a: inactive

q: What call does the record list for Cn1cc(-c2cnc3ccc4ccc(CS(=O)(=O)NCc5ccccn5)cc4c(=O)c3c2)cn1 (10 µM) ?
a: inactive

q: What call does the record list for NC(=O)C(c1ccccc1)(c1ccccc1)[C@@H]1CCN(CCc2ccc3c(c2)CCO3)C1 [darifenacin] (10 µM) ?
a: inactive

q: What call does the record list for COc1ccc2cc([C@H](C)C(=O)O)ccc2c1 [naproxen] (10 µM) ?
a: inactive

q: What call does the record list for CN1CC(=O)NC1=N [creatinine] (10 µM) ?
a: inactive

q: What call does the record list for CCOC(CN1CCN(CC(C)C(=O)c2ccccc2)CC1)c1ccccc1 (stereo not given) [eprazinone] (10 µM) ?
a: inactive

q: What call does the record list for O=c1c(O)c(-c2ccc(O)cc2O)oc2cc(O)cc(O)c12 [morin] (10 µM) ?
a: inactive

q: What call does the record list for C=C(C)[C@@H]1CC=C(CO)CC1 [perillyl-alcohol] (10 µM) ?
a: inactive

q: What call does the record list for Clc1ccc2c(c1)CCc1cccnc1C2=C1CCNCC1 [desloratadine] (10 µM) ?
a: inactive

q: What call does the record list for COC(=O)C1=C(C)NC(C)=C(C(=O)OC)C1c1ccccc1[N+](=O)[O-] [nifedipine] (10 µM) ?
a: inactive

q: What call does the record list for Cc1ccc(NC(=O)c2cccc(N(C)C)c2)cc1NC(=O)c1ccc(O)cc1 (10 µM) ?
a: inactive

q: What call does the record list for O=C(O)c1ccccc1 [benzoic-acid] (10 µM) ?
a: inactive

q: What call does the record list for CN[C@@H]1[C@@H](O[C@H]2O[C@H](CO)[C@@H](N)[C@H](O)[C@H]2O)O[C@H]2C[C@@H](N)[C@@H](O[C@H]3[C@H](O)[C@@H](O)[C@H](N)C[C@@H]3N)O[C@@H]2[C@@H]1O [apramycin] (10 µM) ?
a: inactive

q: What call does the record list for CN[C@H](CNC(=O)N1CCC[C@@H]([C@@H](OCCNC(=O)OC)c2cccc(Cl)c2)C1)C[C@H]1CCCOC1 (10 µM) ?
a: inactive

q: What call does the record list for O=C(CCCl)NCc1ccccc1 [beclamide] (10 µM) ?
a: inactive

q: What call does the record list for C[C@H](Nc1cc(-c2cnn(C)c2)cc(Nc2cnccn2)n1)c1ccc(F)cc1 (0.833333 µM) ?
a: inactive

q: What call does the record list for CCCC(CCC)C(=O)NCC(N)=O [valrocemide] (10 µM) ?
a: inactive

q: What call does the record list for COc1cc2c(Oc3ccc4[nH]c(C)cc4c3F)ccnc2cc1OCC1(N)CC1 [anlotinib] (10 µM) ?
a: inactive

q: What call does the record list for CCCCCCCCCCCCCCCCCCN(CCCCCCCCCCCCCCCCCC)CCCN(CCO)CCO [avridine] (10 µM) ?
a: inactive

q: What call does the record list for Nc1nc(=O)n([C@H]2C[C@H](O)[C@@H](CO)O2)cc1Cl [cytochlor] (10 µM) ?
a: inactive

q: What call does the record list for CCN1/C(=C/C(C)=O)Sc2ccc(OC)cc21 (10 µM) ?
a: inactive

q: What call does the record list for Cn1cc(-c2ccc3nnc(C(F)(F)c4ccc5ncccc5c4)n3n2)cn1 (10 µM) ?
a: inactive

q: What call does the record list for C[S+]([O-])CCCCN=C=S (stereo not given) [sulforaphane] (10 µM) ?
a: active

q: What call does the record list for O=C(c1ccccc1)c1ccc2n1CCC2C(=O)O (stereo not given) [ketorolac] (10 µM) ?
a: inactive

q: What call does the record list for N=C(N)S/C=C\C(=O)O (10 µM) ?
a: inactive

q: What call does the record list for CC(=O)CCCCn1c(=O)c2c(ncn2C)n(C)c1=O [pentoxifylline] (10 µM) ?
a: inactive

q: What call does the record list for Cc1ccc2c(c1)c1c(n2CCc2ccc(C)nc2)CCN(C)C1 [latrepirdine] (10 µM) ?
a: inactive

q: What call does the record list for CC(=O)OCC(=O)[C@@]12OC3(CCCC3)O[C@@H]1C[C@H]1[C@@H]3CCC4=CC(=O)C=C[C@]4(C)[C@@]3(F)[C@@H](O)C[C@@]12C [amcinonide] (10 µM) ?
a: inactive

q: What call does the record list for CC(C)SC(=N)N [S-isopropylisothiourea] (10 µM) ?
a: inactive

q: What call does the record list for CNC(=O)c1ccc2c(c1)S(=O)(=O)c1ccccc1C2=O (10 µM) ?
a: inactive

q: What call does the record list for NC(=O)N1CCC(CC(=O)N2CCC([C@H]3c4ncc(Br)cc4CCc4cc(Cl)cc(Br)c43)CC2)CC1 [lonafarnib] (10 µM) ?
a: active

q: What call does the record list for CCN(CC)CCCC(C)Nc1ccnc2cc(Cl)ccc12 (stereo not given) [chloroquine] (10 µM) ?
a: active

q: What call does the record list for Nc1nc(Nc2ccc(S(N)(=O)=O)cc2)nn1C(=O)c1c(F)cccc1F (0.833333 µM) ?
a: inactive

q: What call does the record list for Cc1cn([C@H]2C[C@H](N=[N+]=[N-])[C@@H](CO)O2)c(=O)[nH]c1=O [zidovudine] (10 µM) ?
a: inactive

q: What call does the record list for O=C(O)C[C@H]1CC[C@H](c2ccc(NC(=O)c3nnc(Nc4ccc(F)c(F)c4)o3)cc2)CC1 (10 µM) ?
a: inactive
